Source of measurements: patent US20180244611A1

# subject-of-test: F508delCFTR (Homo sapiens, UniProt P13569, DEL508-508)
# Construct: expressed in transfected cells; host or cells: CFBE41o- human lung-derived epithelial cells (CFBE41o-F508delCFTR-HRP), doxycycline-inducible
# Sequence (P13569 with tags, fused parts or gaps DEL508-508): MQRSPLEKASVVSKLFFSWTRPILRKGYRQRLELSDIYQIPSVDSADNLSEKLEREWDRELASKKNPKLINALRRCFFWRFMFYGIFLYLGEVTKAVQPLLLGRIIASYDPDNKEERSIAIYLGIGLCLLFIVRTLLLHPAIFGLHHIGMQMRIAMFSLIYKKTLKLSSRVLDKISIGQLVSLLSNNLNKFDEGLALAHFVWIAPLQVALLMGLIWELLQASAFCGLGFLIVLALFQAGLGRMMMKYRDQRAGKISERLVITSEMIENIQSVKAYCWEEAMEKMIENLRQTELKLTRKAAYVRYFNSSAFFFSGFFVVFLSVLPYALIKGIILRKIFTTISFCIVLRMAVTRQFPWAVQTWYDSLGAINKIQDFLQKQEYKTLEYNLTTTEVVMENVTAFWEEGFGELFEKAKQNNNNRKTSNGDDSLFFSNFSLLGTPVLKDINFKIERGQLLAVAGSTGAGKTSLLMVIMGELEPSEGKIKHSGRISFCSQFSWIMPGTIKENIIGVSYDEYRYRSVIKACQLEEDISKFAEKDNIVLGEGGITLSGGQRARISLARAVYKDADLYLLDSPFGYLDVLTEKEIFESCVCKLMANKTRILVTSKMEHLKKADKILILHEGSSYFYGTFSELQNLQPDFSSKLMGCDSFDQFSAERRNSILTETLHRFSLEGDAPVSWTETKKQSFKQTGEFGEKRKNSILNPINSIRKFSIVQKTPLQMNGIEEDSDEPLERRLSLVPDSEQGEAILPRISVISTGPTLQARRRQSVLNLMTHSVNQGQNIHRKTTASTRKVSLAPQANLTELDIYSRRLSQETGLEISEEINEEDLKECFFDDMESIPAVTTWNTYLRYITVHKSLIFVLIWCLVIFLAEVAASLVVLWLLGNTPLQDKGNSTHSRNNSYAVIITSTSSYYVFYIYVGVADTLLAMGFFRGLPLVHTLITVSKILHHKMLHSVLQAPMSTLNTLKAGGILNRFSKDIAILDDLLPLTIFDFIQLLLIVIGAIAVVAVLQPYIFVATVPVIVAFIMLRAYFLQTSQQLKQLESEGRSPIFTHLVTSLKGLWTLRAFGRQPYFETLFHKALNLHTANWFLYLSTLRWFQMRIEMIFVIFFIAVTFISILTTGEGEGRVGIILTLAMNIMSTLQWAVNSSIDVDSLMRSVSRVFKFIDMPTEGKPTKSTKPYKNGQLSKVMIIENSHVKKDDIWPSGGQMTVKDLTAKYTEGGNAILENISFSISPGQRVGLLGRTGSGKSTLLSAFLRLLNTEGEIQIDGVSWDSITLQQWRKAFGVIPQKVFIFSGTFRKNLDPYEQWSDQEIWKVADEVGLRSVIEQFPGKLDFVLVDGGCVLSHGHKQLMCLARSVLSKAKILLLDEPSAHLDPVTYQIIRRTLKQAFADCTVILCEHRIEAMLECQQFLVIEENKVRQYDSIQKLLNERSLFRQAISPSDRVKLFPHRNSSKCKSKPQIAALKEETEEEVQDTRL
# assay-procedure: Cell Surface Expression-Horse Radish Peroxidase (CSE-HRP) assay, test compound with co-corrector
# Type: cell-based
# condition-info: with 2 μM co-corrector
value-type: EC50

Here are 4 compounds together with their reported answers.
> print(dat)
                                   compound  value.type  reported.value
1  COc1cccc2c1CCC2C(=O)NS(=O)(=O)c1c(Cl)cccc1Cl (centres unmarked)        EC50         ≥ 10 µM
2  COc1ccc(Br)c2c1[C@@H](C(=O)NS(=O)(=O)c1cccc3ncccc13)CC2        EC50          < 3 µM
3  CCC1(C(=O)NS(=O)(=O)c2cccc3ccn(C)c23)CCc2c(Cl)cccc21 (centres unmarked)        EC50          < 3 µM
4  COc1cccc2c1CCC2C(=O)NS(=O)(=O)c1cc(C)ccc1C(C)C (centres unmarked)        EC50      3 to 10 µM

Would you mind telling me what EC50 value was observed for CCC1(C(=O)NS(=O)(=O)N2CCCc3ccccc32)CCc2c(Cl)cccc21 (centres unmarked) ?
≥ 10 µM
